Where do these numbers come from? They come from PubChem BioAssay AID1645848.

details: buffer; pH 7.4; 6.0 h; 150.0 µM
PROPERTY: solubility kinetic

Sample answers from the record:
- COMPOUND: "O=C(Nc1ccc(Cl)cc1)C(NS(=O)(=O)c1cccs1)c1ccccc1 (stereo unspecified)"
  solubility kinetic: "< 1 µg/mL"
- COMPOUND: "CCCNC(=O)c1ccc2c(c1)ncn2-c1cc(C)cc(C)c1"
  solubility kinetic: "< 1 µg/mL"
- COMPOUND: "COc1ccc(OC)c(-n2c3c(cc(-c4nc(-c5ccc(Cl)cc5)cs4)c2=O)C(=O)CC(C)(C)C3)c1"
  solubility kinetic: "< 1 µg/mL"
- COMPOUND: "COc1ccccc1C(=O)NC1CCCc2c1[nH]c1c(Cl)cccc21 (stereo unspecified)"
  solubility kinetic: "< 1 µg/mL"
- COMPOUND: "COc1ccc2c(c1)/C(=C/c1cnc[nH]1)C(=O)N2"
  solubility kinetic: "> 36 µg/mL"

Which measured solubility kinetic value corresponds to Cn1c(=O)cc(C(=O)NC2CCCc3c2[nH]c2c(Cl)cccc32)c2ccccc21 (stereo unspecified) ?
< 1 µg/mL

----------
details: buffer; pH 7.4; 6.0 h; 150.0 µM
Examples of compounds with documented solubility kinetic follow.

Sample answers from the record:
- STRUCTURE SMILES: "CCOC(=O)C1CCN(c2ncc(-c3ccc4c(c3)OCCCO4)s2)CC1"
  solubility kinetic: "< 1 µg/mL"
- STRUCTURE SMILES: "Cc1ccc(NC(=O)c2cc(-c3ccc[nH]3)n[nH]2)cc1F"
  solubility kinetic: "> 28 µg/mL"
- STRUCTURE SMILES: "Fc1cc(Nc2nc(-c3ccncc3)nc3ccccc23)ccc1OCC(F)(F)F"
  solubility kinetic: "< 1 µg/mL"
- STRUCTURE SMILES: "Cc1sc(NC(=O)Cc2ccc3c(c2)OCO3)nc1-c1ccc2c(c1)CCN2C(=O)c1ccccc1Cl"
  solubility kinetic: "< 1 µg/mL"

# ---- query compound ----
Which measured solubility kinetic value corresponds to Cc1ccc(C(=O)NC2CCN(c3cnn(CC4CC4)c(=O)c3)CC2)cc1C ?
< 1 µg/mL

----------
conditions: buffer; pH 7.4; 6.0 h; 150.0 µM
Examples of compounds with documented solubility kinetic follow.

Sample answers from the record:
- COMPOUND: "Cc1ccc(-c2cc(C(=O)Nc3cccc(S(=O)(=O)Nc4nccs4)c3)c3ccccc3n2)cc1C"
  solubility kinetic: "< 1 µg/mL"
- COMPOUND: "COC(=O)[C@@]12OC[C@]34[C@H]([C@@H](O)[C@@H]1O)[C@@]1(C)CC(=O)C(O)=C(C)[C@@H]1C[C@H]3OC(=O)[C@H](OC(=O)/C=C(\\C)C(C)C)[C@@H]24"
  solubility kinetic: "> 81 µg/mL"
- COMPOUND: "Cc1ccc(S(=O)(=O)Nc2ccccc2C(=O)Nc2ccc(-c3ccccc3)cn2)cc1"
  solubility kinetic: "< 1 µg/mL"
- COMPOUND: "CN(C)C(=O)c1cc(-c2ccc(S(C)(=O)=O)cc2)c2cnn(C)c2n1"
  solubility kinetic: "> 53 µg/mL"
- COMPOUND: "CC[C@@H](CO)NC(=O)[C@@H]1C=C2c3cccc4c3c(cn4C)C[C@H]2N(C)C1"
  solubility kinetic: "> 52 µg/mL"

# ---- query compound ----
Which measured solubility kinetic value corresponds to O=C(Nc1nnc(-c2ccc(Cl)cc2)o1)c1ccc(Cl)c(Cl)c1 ?
< 1 µg/mL
